Where do these numbers come from? They come from PubChem BioAssay AID504936.

tested on: S. cerevisiae BY4741 DNA content flow cytometry, cell cycle; assay: S. cerevisiae cell cycle DNA content profile – flow cytometry (AID 504936); conditions: at 10 µM; stronger effect = higher value;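 note: yeast exposed to compound for three five or seven days before fixation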
Below, each entry is listed with its recorded G1/G0 population.
State the answer as a number, implicitly in %.

>>> value("CC(C)CSc1nnc2c3ccccc3n(C)c2n1")
75

Write down G1/G0 population measured for item COc1ccc2nc3ccccc3[n+]([O-])c2c1 69.4

Write down G1/G0 population measured for item CN(C)CCNc1ncnc2c1cnn2-c1ccc(Cl)cc1 52.4

Write down G1/G0 population measured for item O=C(O)c1cnc2ccccc2n1 78.8

###

system: S. cerevisiae BY4741 DNA content flow cytometry, cell cycle; experiment: S. cerevisiae cell cycle DNA content profile – flow cytometry (AID 504936); conditions: measured here: G2 phase fraction; at 10 µM; stronger effect = lower value;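 note: yeast exposed to compound for three five or seven days before fixation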
Decide using G2 population alone. Strictly below 10%: rule met. Equal to or above 10%: rule not met.

Example entries and their recorded answers appear below.
>>> discrete_label("Cc1ccc(-c2nn(C(C)(C)C)c3ncnc(N)c23)cc1")
"rule met"
>>> discrete_label("CC(=O)Nc1ccc2nc3ccccc3nc2c1")
"rule not met"
>>> discrete_label("O=C1c2c(O)ccc(O)c2C(=O)c2c(NCCNCCO)ccc(NCCNCCO)c21")
"rule met"
>>> discrete_label("O=C(OCc1c(F)cccc1Cl)c1cnc2ccccc2n1")
"rule not met"
>>> discrete_label("O=C(O)c1cnc2ccccc2n1")
"rule not met"

Now examine the next entry.
Could you please tell me whether G2 population recorded for C[C@@]12C(=O)OC(=O)[C@]1(C)C1CCC2O1 is less than 10%? rule met
